assay-target: IDO1 (Homo sapiens (Human))
Sequence (P14902 whole entry): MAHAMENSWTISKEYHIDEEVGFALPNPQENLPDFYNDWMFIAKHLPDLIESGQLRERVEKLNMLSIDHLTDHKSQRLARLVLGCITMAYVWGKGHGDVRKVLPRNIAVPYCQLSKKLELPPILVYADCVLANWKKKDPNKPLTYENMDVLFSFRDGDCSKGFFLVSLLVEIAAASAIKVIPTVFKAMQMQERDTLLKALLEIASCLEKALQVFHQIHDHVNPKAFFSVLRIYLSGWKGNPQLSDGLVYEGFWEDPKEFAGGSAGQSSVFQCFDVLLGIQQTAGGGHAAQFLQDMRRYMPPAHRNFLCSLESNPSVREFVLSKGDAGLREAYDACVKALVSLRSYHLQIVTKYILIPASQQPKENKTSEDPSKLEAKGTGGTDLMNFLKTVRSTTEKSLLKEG
measurement-protocol: IDO1 Cellular Assay in Hela Cells Stimulated with IFNγ
Format: cell-based
experimental-parameters: about 48 hours, read-out: IDO1 HELA Cell Assay, IC50
property-name: IC50 (µM)

Sample records with IC50:
N=S(=O)(CCO)CCNc1nonc1/C(=N/O)N[C@H]1Cc2ccc(F)cc21 (single isomer, unassigned) [Example 8] = 0.0305
CS(=N)(=O)CCNC(=O)CNc1nonc1/C(=N/O)N[C@H]1Cc2ccc(F)cc21 (single isomer, unassigned) [Example 13] = 0.0955
CS(=N)(=O)CC(O)CNc1nonc1/C(=N/O)N[C@H]1Cc2ccc(F)cc21 (single isomer, unassigned) [Example 27] = 0.129

A = N=S1(=O)CCC1CNc1nonc1/C(=N/O)N[C@H]1Cc2ccc(F)cc21 (single isomer, unassigned) [Example 23]
B = CS(=N)(=O)N1CCO[C@@H](CNc2nonc2/C(=N\O)N[C@@H]2Cc3ccc(F)cc32)C1 (single isomer, unassigned) [Example 64]
C = CS(=N)(=O)C1CC2(CC(Nc3nonc3/C(=N\O)N[C@@H]3Cc4ccc(F)cc43)C2)C1 (single isomer, unassigned) [Example 74]
Query :: Task for the reader: rank each entry by its IC50, from the minimum upward. Give the labels in the order requested.
Result :: C, A, B
